Below, each entry is listed alongside its reported MIC.
- System: Escherichia coli
- experiment: Antibacterial activity against Escherichia coli ATCC 25922 assessed as growth inhibition after 18 hrs by colorimetric microdilution technique
- Assay type: functional
- condition.parameters: ATCC 25922, 18 h
Answer shape: numeric part, then the unit.

>>> value_reported("CCN(CC)[c+]1sc2c(s1)C(c1ccc(Cl)cc1)Oc1c(I)cc(I)cc1-2.[O-][Cl+3]([O-])([O-])[O-] (stereo not drawn)")
"7.81 µg/mL"
>>> value_reported("CCN(CC)[c+]1sc2c(s1)C(c1ccc(Cl)cc1)Oc1ccccc1-2.F[B-](F)(F)F (stereo not drawn)")
"62.5 µg/mL"
>>> value_reported("CCN(CC)[c+]1sc2c(s1)C(c1ccc(Cl)cc1)Oc1c(Br)cc(Br)cc1-2.F[B-](F)(F)F (stereo not drawn)")
"7.81 µg/mL"

## Task API: value(readout= MIC, system= Escherichia coli, query= CCN(CC)[c+]1sc2c(s1)C(c1ccc(Cl)cc1)Oc1ccc(Br)cc1-2.F[B-](F)(F)F (stereo not drawn) )
## Result 3.9 µg/mL

## Task API: value(readout= MIC, system= Escherichia coli, query= CCN(CC)[c+]1sc2c(s1)C(c1ccc(Cl)cc1)Oc1c(I)cc(I)cc1-2.F[B-](F)(F)F (stereo not drawn) )
## Result 15.6 µg/mL

## Task API: value(readout= MIC, system= Escherichia coli, query= CCN(CC)[c+]1sc2c(s1)C(c1ccc(OC)cc1)Oc1ccc(Br)cc1-2.F[B-](F)(F)F (stereo not drawn) )
## Result 125 µg/mL

## Task API: value(readout= MIC, system= Escherichia coli, query= CCN(CC)[c+]1sc2c(s1)C(c1ccc(OC)cc1)Oc1ccc(Br)cc1-2.[O-][Cl+3]([O-])([O-])[O-] (stereo not drawn) )
## Result 125 µg/mL

## Task API: value(readout= MIC, system= Escherichia coli, query= CCN(CC)[c+]1sc2c(s1)C(c1ccc(Cl)cc1)Oc1ccc(Br)cc1-2.[O-][Cl+3]([O-])([O-])[O-] (stereo not drawn) )
## Result 3.9 µg/mL
